Measured log10(half-life) accompanies every entry in the list below.
- assayNotes: Half life in human plasma was reported
- Assay type: ADME, cell-free
assayMetric: log10(half-life) (log10 of the value in h)

CC1CC1C(=O)N1C(=O)[C@@H](C)[C@@H]2[C@@H]1CCN2C(=O)[C@@H]1CCCN1S(=O)(=O)c1cccc2c(N(C)C)cccc12 (stereo partly drawn) = 0.40
C[C@@H]1C(=O)N(C(=O)C2C(C)(C)C2(C)C)[C@H]2CCN(C(=O)OCc3ccccc3)[C@H]12 = 1.52
C[C@@H]1C(=O)N(C(=O)C2CC2)[C@H]2CCN(C(=O)OCc3ccccc3)[C@H]12 = 0.15
C[C@@H]1C(=O)N(C(=O)C(C)(C)C)[C@H]2CCN(C(=O)OCc3ccccc3)[C@H]12 = 0.57
CC1CC1C(=O)N1C(=O)[C@@H](C)[C@@H]2[C@@H]1CCN2C(=O)OCc1ccccc1 (stereo partly drawn) = 0.41
C[C@@H]1C(=O)N(C(=O)C2CC2)[C@H]2CCN(C(=O)[C@@H]3CCCN3S(=O)(=O)c3cccc4c(N(C)C)cccc34)[C@H]12 = 0.70
CC(=O)N1C(=O)C(C)(C)[C@@H]2[C@@H]1CCN2C(=O)OCc1ccccc1 = 0.81
COC(=O)N1C(=O)[C@@H](C)[C@@H]2[C@@H]1CCN2C(=O)OCc1ccccc1 = -0.08
C[C@@H]1C(=O)N(C(=O)NCc2ccccc2)[C@H]2CCN(C(=O)OCc3ccccc3)[C@H]12 = 1.08
C[C@@H]1C(=O)N(c2nccs2)[C@H]2CCN(C(=O)OCc3ccccc3)[C@H]12 = 1.64
C[C@@H]1C(=O)N(c2ccc([N+](=O)[O-])cc2)[C@H]2CCN(C(=O)OCc3ccccc3)[C@H]12 = 1.60
C[C@@H]1[C@H](C)[C@@H]1C(=O)N1C(=O)[C@@H](C)[C@@H]2[C@@H]1CCN2C(=O)[C@@H]1CCCN1S(=O)(=O)c1cccc2c(N(C)C)cccc12 = 1.30

* * *

- tgt: Capsid scaffolding protein (Human cytomegalovirus (strain AD169) (HHV-5) (Human herpesvirus 5), UniProt P16753)
- Sequence (P16753 1-256 limits assumed): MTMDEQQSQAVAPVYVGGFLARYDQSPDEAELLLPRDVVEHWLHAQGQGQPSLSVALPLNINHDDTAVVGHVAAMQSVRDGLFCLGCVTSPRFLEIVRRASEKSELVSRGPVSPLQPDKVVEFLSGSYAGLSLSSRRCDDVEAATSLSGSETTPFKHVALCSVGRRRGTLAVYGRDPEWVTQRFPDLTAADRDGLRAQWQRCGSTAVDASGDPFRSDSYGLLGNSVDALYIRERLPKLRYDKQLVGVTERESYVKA
- assayNotes: Tested in vitro for inhibitory activity against Protease
pIC50: −log10 of the molar value.
assayMetric: pIC50

C[C@@H]1[C@H](C)[C@@H]1C(=O)N1C(=O)[C@@H](C)[C@@H]2[C@@H]1CCN2C(=O)OCc1ccccc1 = 4.14
CNC(=O)N1C(=O)[C@@H](C)[C@@H]2[C@@H]1CCN2C(=O)OCc1ccccc1 = < 3.30
C[C@@H]1C(=O)N(C(=O)C2C(C)(C)C2(C)C)[C@H]2CCN(C(=O)[C@@H]3CCCN3S(=O)(=O)c3cccc4c(N(C)C)cccc34)[C@H]12 = < 4.00
C[C@@H]1C(=O)N(C(=O)NCc2ccccc2)[C@H]2CCN(C(=O)OCc3ccccc3)[C@H]12 = 3.60
C[C@@H]1C(=O)N(C(=O)C(C)(C)C)[C@H]2CCN(C(=O)OCc3ccccc3)[C@H]12 = < 3.30
C[C@@H]1C(=O)N(c2ccc([N+](=O)[O-])cc2[N+](=O)[O-])[C@H]2CCN(C(=O)OCc3ccccc3)[C@H]12 = ~3.30
C[C@@H]1C(=O)N(c2nccs2)[C@H]2CCN(C(=O)OCc3ccccc3)[C@H]12 = ~3.30
C[C@@H]1C(=O)N(c2ccc([N+](=O)[O-])cc2)[C@H]2CCN(C(=O)OCc3ccccc3)[C@H]12 = ~3.30
C[C@@H]1C(=O)N(C(=O)C2C(C)(C)C2(C)C)[C@H]2CCN(C(=O)OCc3ccccc3)[C@H]12 = < 3.30
CC(=O)N1C(=O)C(C)(C)[C@@H]2[C@@H]1CCN2C(=O)OCc1ccccc1 = < 3.30
C[C@@H]1C(=O)N(S(C)(=O)=O)[C@H]2CCN(C(=O)OCc3ccccc3)[C@H]12 = ~3.30
C[C@@H]1C(=O)N(c2ccc([N+](=O)[O-])cc2)[C@H]2CCN(C(=O)[C@@H]3CCCN3S(=O)(=O)c3cccc4c(N(C)C)cccc34)[C@H]12 = 4.39
C[C@@H]1C(=O)N(C(=O)NCc2ccccc2)[C@H]2CCN(C(=O)[C@@H]3CCCN3S(=O)(=O)c3cccc4c(N(C)C)cccc34)[C@H]12 = 5.18
CC1CC1C(=O)N1C(=O)[C@@H](C)[C@@H]2[C@@H]1CCN2C(=O)OCc1ccccc1 (stereo not given in full) = 4.80
COP(=O)(OC)N1C(=O)[C@@H](C)[C@@H]2[C@@H]1CCN2C(=O)OCc1ccccc1 = < 3.30

* * *

- assayNotes: Half life in human plasma was reported
- Type: ADME, cell-free
assayMetric: half-life (min)

C[C@@H]1[C@H](C)[C@@H]1C(=O)N1C(=O)[C@@H](C)[C@@H]2[C@@H]1CCN2C(=O)OCc1ccccc1 = 588
CNC(=O)N1C(=O)[C@@H](C)[C@@H]2[C@@H]1CCN2C(=O)[C@@H]1CCCN1S(=O)(=O)c1cccc2c(N(C)C)cccc12 = 720
CC(=O)N1C(=O)[C@@H](C)[C@@H]2[C@@H]1CCN2C(=O)OCc1ccccc1 = 54

* * *

# IC50 listing for each entry below
- tgt: Capsid scaffolding protein (Human cytomegalovirus (strain AD169) (HHV-5) (Human herpesvirus 5), UniProt P16753)
- assayNotes: Tested in vitro for inhibitory activity against Protease
assayMetric: IC50 (µM)

CNC(=O)N1C(=O)[C@@H](C)[C@@H]2[C@@H]1CCN2C(=O)[C@@H]1CCCN1S(=O)(=O)c1cccc2c(N(C)C)cccc12 = 22
C[C@@H]1C(=O)N(c2nccs2)[C@H]2CCN(C(=O)[C@@H]3CCCN3S(=O)(=O)c3cccc4c(N(C)C)cccc34)[C@H]12 = 2.1
COC(=O)N1C(=O)[C@@H](C)[C@@H]2[C@@H]1CCN2C(=O)OCc1ccccc1 = 148
C[C@@H]1C(=O)N(C(=O)C2CC2)[C@H]2CCN(C(=O)OCc3ccccc3)[C@H]12 = 9
CC1CC1C(=O)N1C(=O)[C@@H](C)[C@@H]2[C@@H]1CCN2C(=O)[C@@H]1CCCN1S(=O)(=O)c1cccc2c(N(C)C)cccc12 (stereo partly specified) = 1.4
C[C@@H]1[C@H](C)[C@@H]1C(=O)N1C(=O)[C@@H](C)[C@@H]2[C@@H]1CCN2C(=O)[C@@H]1CCCN1S(=O)(=O)c1cccc2c(N(C)C)cccc12 = 5.1

* * *

- assayNotes: Half life in human plasma was reported
- Type: ADME, cell-free
Consider the following molecules and their measured half-life readings.
assayMetric: half-life

C[C@@H]1C(=O)N(S(C)(=O)=O)[C@H]2CCN(C(=O)OCc3ccccc3)[C@H]12 = < 0.0833 h
C[C@@H]1C(=O)N(C(=O)NCc2ccccc2)[C@H]2CCN(C(=O)[C@@H]3CCCN3S(=O)(=O)c3cccc4c(N(C)C)cccc34)[C@H]12 = > 33 h
C[C@@H]1C(=O)N(c2ccc([N+](=O)[O-])cc2[N+](=O)[O-])[C@H]2CCN(C(=O)OCc3ccccc3)[C@H]12 = > 24 h
CNC(=O)N1C(=O)[C@@H](C)[C@@H]2[C@@H]1CCN2C(=O)OCc1ccccc1 = > 24 h
C[C@@H]1C(=O)N(C(=O)C2C(C)(C)C2(C)C)[C@H]2CCN(C(=O)[C@@H]3CCCN3S(=O)(=O)c3cccc4c(N(C)C)cccc34)[C@H]12 = > 24 h
COP(=O)(OC)N1C(=O)[C@@H](C)[C@@H]2[C@@H]1CCN2C(=O)OCc1ccccc1 = > 24 h
